- test_protocol: isobaric coefficient of expansion
- test_conditions: 298.15 K; 40000 kPa; Liquid; DSC
observable: isobaric coefficient of expansion

In the examples that follow, each entry is paired with its recorded isobaric coefficient of expansion.
Query (compound): N#Cc1ccccc1 ; field requested: isobaric coefficient of expansion 0.000773 1/K

Would you mind doing CC[N+](=O)[O-] as well? 0.000993 1/K

Would you mind doing O=[N+]([O-])c1ccccc1 as well? 0.000742 1/K

***
Query (compound): CCC[N+](=O)[O-] ; field requested: isobaric coefficient of expansion 0.00092 1/K

Would you mind doing CCC#N as well? 0.00105 1/K

Would you mind doing C[N+](=O)[O-] as well? 0.00105 1/K
